Documented IC50 across a set of molecules
Target chain: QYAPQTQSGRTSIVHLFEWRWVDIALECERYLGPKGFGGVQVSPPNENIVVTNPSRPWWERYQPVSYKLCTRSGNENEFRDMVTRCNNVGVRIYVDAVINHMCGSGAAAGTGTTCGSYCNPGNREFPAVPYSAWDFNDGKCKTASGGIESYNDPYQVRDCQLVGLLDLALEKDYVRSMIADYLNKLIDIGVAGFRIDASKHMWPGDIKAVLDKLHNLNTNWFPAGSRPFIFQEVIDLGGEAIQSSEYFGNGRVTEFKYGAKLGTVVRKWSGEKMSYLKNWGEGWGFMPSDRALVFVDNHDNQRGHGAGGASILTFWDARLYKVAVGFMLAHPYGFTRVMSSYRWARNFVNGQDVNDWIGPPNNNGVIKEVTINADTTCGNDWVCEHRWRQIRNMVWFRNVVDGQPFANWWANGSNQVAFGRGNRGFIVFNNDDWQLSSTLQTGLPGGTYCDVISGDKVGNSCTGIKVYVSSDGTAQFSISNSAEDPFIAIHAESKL

| STRUCTURE_AS_SMILES | IC50 |
| --- | --- |
| Oc1cc(O)cc(-c2cc3ccc(O)cc3o2)c1 | > 300 µM |

// moving on: another record for IC50
Prompt line: Fill in IC50 for record CC1(C)Oc2cc3oc(-c4cc(O)cc(O)c4)cc3cc2C[C@H]1O
Response line: > 300 µM

----------
MEASURED_ON: Saccharomyces cerevisiae α-glucosidase
ASSAY_INFO: In-vitro α-glucosidase inhibition assay
STUDY_CONDITIONS: n = 5 independent experiments in duplicate; read-out: α-glucosidase IC50 (range)
QUANTITY_MEASURED: IC50 (µM)
Just the number in µM, nothing appended.

Prompt line: For the molecule Oc1cc(O)cc(-c2cc3ccc(O)cc3o2)c1 [Compound 3, Moracin M] , report IC50.
Response line: 40.9
